Entry source: ChEMBL document CHEMBL4152376

# ASSAY TEXT: Fraction unbound in rat brain by equilibrium dialysis
# Assay type: ADME, tissue-based
OBSERVABLE: fraction unbound
Please respond with just the number, no unit label.

Consider O=S(=O)(c1ccc(O)c2ncccc12)N1CCCC1Cc1ccccc1 (stereo unspecified) . Its measured fraction unbound is 0.5

* * *

Below is a list of entries, each paired with its recorded Cp(f) value.
# ASSAY TEXT: Unbound plasma concentration in Sprague-Dawley rat 10 mg/kg, po after 4 hrs by ES-UPLC analysis
# Format: ADME, organism-based
# CONDITION DETAILS: in vivo
// note: answer is a bare numeric in nM

Consider `O=S(=O)(c1ccc(F)cc1)c1cc(F)c(O)c2ncccc12` . Its measured Cp(f) is 48

Consider `O=S(=O)(c1cc(F)c(O)c2ncccc12)C1CCCC1` . Its measured Cp(f) is 19

Consider `O=S(=O)(c1cc(Cl)c(O)c2ncccc12)C1CCCC1` . Its measured Cp(f) is 32

Consider `O=S(=O)(c1cc(F)c(O)c2ncccc12)N1CCCC1` . Its measured Cp(f) is 23

* * *

# ASSAY TEXT: Clearance in rat hepatocytes assessed as per million cells
# Assay type: ADME, cell-based, Hepatocyte
# CONDITION DETAILS: read-out: CLH
Below is a list of entries, each paired with its recorded hepatocyte CLint value.

Please review the following examples before continuing.
O=S(=O)(c1cc(F)c(O)c2ncccc12)C1CCCC1 ... 19 µL/min/1e6 cells
O=S(=O)(c1ccc(F)cc1)c1cc(Cl)c(O)c2ncccc12 ... 4 µL/min/1e6 cells

Consider the record given below.
Consider `O=S(=O)(c1ccc(C(F)(F)F)cc1)c1cc(F)c(O)c2ncccc12` . Its measured hepatocyte CLint is 12 µL/min/1e6 cells

* * *

# ASSAY TEXT: Half life in rat at 1 mg/kg, iv or 3/10 mg/kg, po
# Assay type: ADME, organism-based
# CONDITION DETAILS: in vivo
Below is a list of entries, each paired with its recorded half-life value.
// note: answer is a bare numeric in h

Consider `O=S(=O)(c1cc(F)c(O)c2ncccc12)N1CCCC1` . Its measured half-life is 2.8

Consider `O=S(=O)(c1ccc(C(F)(F)F)cc1)c1cc(F)c(O)c2ncccc12` . Its measured half-life is 3.5

Consider `O=S(=O)(c1cc(Cl)c(O)c2ncccc12)C1CCCC1` . Its measured half-life is 11
